Taken from the supplement of paper PMC6555819.

System: RARa homodimer (NR concentration 270 nM)
test protocol: PBM binding z-score (relative to random genomic background probes); higher = stronger binding; sequences stand for … in GC…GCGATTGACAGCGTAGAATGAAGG
assay endpoint: PBM binding z-score
The answer should be written as a number, with no unit following it.

{"columns": ["biosequence", "PBM binding z-score"],
 "data": [
  ["AGTCAAAGTACACTAGGTAACGTAAGATTCAGCT", 0.688],
  ["CGAACTAGGTCAAAGACAGTGAATCTCCGCACGC", 0.463],
  ["ACTTACGGGTCAACGAGGTTATAGCCCGCGTATA", -0.101]
]}

Looking up TCTGGTAGGTCAACGATGGTCAGCTAATCTGCTA , I found its PBM binding z-score recorded as 0.843

Looking up TCTCGGAGGACACGAAATGTCAGAGCTCGACATC , I found its PBM binding z-score recorded as -0.679

Looking up TCATCTAGGTAAATGCTAGGTGAAAGTCCGATCT , I found its PBM binding z-score recorded as -0.0135

###

Test system: RARg homodimer (NR concentration 270 nM)
test protocol: PBM binding z-score (relative to random genomic background probes); higher = stronger binding; sequences stand for … in GC…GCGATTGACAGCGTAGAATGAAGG
# maps each entry to its PBM binding z-score
The answer should be written as a number, with no unit following it.

Answered cases to consult:
{"columns": ["biosequence", "target of assay", "observed measurement"],
 "data": [
  ["CCTACTGCGCCATTCAGAGGTCATTGATCATATG", "RARg homodimer (NR concentration 270 nM)", 2.53],
  ["CGTCCAAGGTCAGAGAGGCCAGTGAATGCCGAGT", "RARg homodimer (NR concentration 270 nM)", 5.6],
  ["ACTCGGAGGACAAAGGTCAGTGCTACGCCAGTGA", "RARg homodimer (NR concentration 270 nM)", 4.99],
  ["TCGAGTAGGTTAGTCGGGGCACTCAGCCAACATA", "RARg homodimer (NR concentration 270 nM)", -0.0518],
  ["CGTTACGGGTCACTCCAGGTTATAGCATCGGAGT", "RARg homodimer (NR concentration 270 nM)", 4.8],
  ["ATCTCTAGGTAAAAGTTCAGTTAATCCCGAGGAT", "RARg homodimer (NR concentration 270 nM)", 2.04]
]}

Looking up TTACTAAGGTGAGCTGAGGTCGTTGATCCAACTC , I found its PBM binding z-score recorded as 1.38

Looking up CCTGCTAGGTCATGTTCAGCTAATCTACAGTATG , I found its PBM binding z-score recorded as 3.95

Looking up AGAATAAGGTTATTAAGATCAGGGAATTGCGGTC , I found its PBM binding z-score recorded as 1.13

Looking up ACAGACAGGTGATGGAGGTAACTCAGGCTATCAT , I found its PBM binding z-score recorded as 0.339

Looking up AGAATAAGGTTACCAAAGATCAGGGAAACGCTTG , I found its PBM binding z-score recorded as 2

Looking up CCTTACGGGTCACGAGGTAATAGCACGACGAGCG , I found its PBM binding z-score recorded as 5.34

###

Test system: RARg:RXRa (NR concentration 270 nM, RXRa partner concentration 90 nM)
test protocol: PBM binding z-score (relative to random genomic background probes); higher = stronger binding; sequences stand for … in GC…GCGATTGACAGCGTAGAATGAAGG
# maps each entry to its PBM binding z-score
The answer should be written as a number, with no unit following it.

Answered cases to consult:
{"columns": ["biosequence", "target of assay", "PBM binding z-score"],
 "data": [
  ["AATCGGAGGACAAAGGTCAGAGCTACGCCAGTGA", "RARg:RXRa (NR concentration 270 nM, RXRa partner concentration 90 nM)", 5.79],
  ["ATATGTGGGTTAGCTGGGGTCATTCAGACTAGGC", "RARg:RXRa (NR concentration 270 nM, RXRa partner concentration 90 nM)", 3.97],
  ["CCGGACAGGTGAGAAGGTAACTCAGCCTCGATTA", "RARg:RXRa (NR concentration 270 nM, RXRa partner concentration 90 nM)", 0.4]
]}

Looking up ATATGTAGGTTAAGGGTCATTCATGTTGGTTCGC , I found its PBM binding z-score recorded as 4.74

Looking up CGAACTAGGTCATTGACAGGACAGTAAATAGTAA , I found its PBM binding z-score recorded as 4.76

Looking up CCTACTGGGTCATCAGGTCATTGATATCAACGTT , I found its PBM binding z-score recorded as 5.07

Looking up ATCGAAAGGTCGACTAGGTGAGTATACACCGTTT , I found its PBM binding z-score recorded as 4.11

Looking up TCGAGTAGGTTAGCGGCATTCAGAATGGCGTCGA , I found its PBM binding z-score recorded as -0.482

###

Tested on: PPARg DBDmut IVT, anti-PPARg (DBD mutation: PPARg1 K132A/R137A, NR concentration 270 nM)
test protocol: PBM binding z-score (relative to random genomic background probes); higher = stronger binding; sequences stand for … in GC…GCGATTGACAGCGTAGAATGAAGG
Everything with PBM binding z-score lower than -0.2 is False; everything else, including exactly -0.2, is True.

// below: answered sequences
{"columns": ["biosequence", "target of assay", "label class"],
 "data": [
  ["ACTATTAGTTGAGACGAGGGCAACGGATAGGTTG", "PPARg DBDmut IVT, anti-PPARg (DBD mutation: PPARg1 K132A/R137A, NR concentration 270 nM)", "True"],
  ["ATATGTAGGTTAGCTGGGATCATTCAGACTAGGC", "PPARg DBDmut IVT, anti-PPARg (DBD mutation: PPARg1 K132A/R137A, NR concentration 270 nM)", "True"],
  ["CCTACTGTGCCAAAAAGGTCATTGATGCCGATAA", "PPARg DBDmut IVT, anti-PPARg (DBD mutation: PPARg1 K132A/R137A, NR concentration 270 nM)", "True"],
  ["CCGACTGGGGCATAACGTTACCATAAGCCAGCCC", "PPARg DBDmut IVT, anti-PPARg (DBD mutation: PPARg1 K132A/R137A, NR concentration 270 nM)", "False"]
]}

Exercise: For this sequence, is measured PBM binding z-score -0.2 or higher? AGAACGAGGGCAATGAGTCGATAGCACGGGTGGC
Solution: False

Exercise: For this sequence, is measured PBM binding z-score -0.2 or higher? CCGACTGGGGCAAGGTTACAATAACGCACAGCCA
Solution: False

###

Tested on: PPARg DBDmut IVT, anti-PPARg (DBD mutation: PPARg1 K132A/R137A, NR concentration 270 nM)
test protocol: PBM binding z-score (relative to random genomic background probes); higher = stronger binding; sequences stand for … in GC…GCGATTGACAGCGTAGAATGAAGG
Could you please classify the records by PBM binding z-score using these ranges: bucket A = under -0.7, bucket B = from -0.7 up to 0.2, bucket C = 0.2 and over

// below: answered sequences
{"columns": ["biosequence", "target of assay", "label class"],
 "data": [
  ["AATACAGGTTCATCGTAGGCCAGAGTACGCACAG", "PPARg DBDmut IVT, anti-PPARg (DBD mutation: PPARg1 K132A/R137A, NR concentration 270 nM)", "bucket C"],
  ["CCTGCTAGGTCATGGTCTGCTAATCTACAGTATG", "PPARg DBDmut IVT, anti-PPARg (DBD mutation: PPARg1 K132A/R137A, NR concentration 270 nM)", "bucket B"],
  ["TTACCAATGTGAAGGTCGTTGATCCCTCTGTAGA", "PPARg DBDmut IVT, anti-PPARg (DBD mutation: PPARg1 K132A/R137A, NR concentration 270 nM)", "bucket C"],
  ["ATCGCTAGGTAACCAAGTTCAGTGAATGCCGAAC", "PPARg DBDmut IVT, anti-PPARg (DBD mutation: PPARg1 K132A/R137A, NR concentration 270 nM)", "bucket B"],
  ["ACAGACAGGTGGGTGAAGGTAACTCAGCTGGACG", "PPARg DBDmut IVT, anti-PPARg (DBD mutation: PPARg1 K132A/R137A, NR concentration 270 nM)", "bucket A"],
  ["GCTGCCAGGTCAGGTTGGTCAGCTAACGGGTACG", "PPARg DBDmut IVT, anti-PPARg (DBD mutation: PPARg1 K132A/R137A, NR concentration 270 nM)", "bucket A"],
  ["CCTTTCGGGTCACTGACAGGTTATAGCATTTGGA", "PPARg DBDmut IVT, anti-PPARg (DBD mutation: PPARg1 K132A/R137A, NR concentration 270 nM)", "bucket B"],
  ["CCTACTGGGCCATTCAGAGTTCATTGATCATATG", "PPARg DBDmut IVT, anti-PPARg (DBD mutation: PPARg1 K132A/R137A, NR concentration 270 nM)", "bucket C"],
  ["CTCGAAAGGTCGTGCGCAGGTGAGTATACCAAAC", "PPARg DBDmut IVT, anti-PPARg (DBD mutation: PPARg1 K132A/R137A, NR concentration 270 nM)", "bucket C"],
  ["AGAACGAGGGAAATGAGTTGATAGCACGGGTGGC", "PPARg DBDmut IVT, anti-PPARg (DBD mutation: PPARg1 K132A/R137A, NR concentration 270 nM)", "bucket A"]
]}

Exercise: Bin this entry: GCTGCTCGGTCAGGTTGGTCAGCTAACGGGTACG
Solution: bucket A

Exercise: Bin this entry: CCAGACAGGTGAGAACGTAACTCAGCCTCGATTA
Solution: bucket B
